Molecular target: human CD40 on cells (B cells, MDDCs, stably transfected CHO cells) (human, UniProt P25942 21-277)
Sequence (P25942 21-277): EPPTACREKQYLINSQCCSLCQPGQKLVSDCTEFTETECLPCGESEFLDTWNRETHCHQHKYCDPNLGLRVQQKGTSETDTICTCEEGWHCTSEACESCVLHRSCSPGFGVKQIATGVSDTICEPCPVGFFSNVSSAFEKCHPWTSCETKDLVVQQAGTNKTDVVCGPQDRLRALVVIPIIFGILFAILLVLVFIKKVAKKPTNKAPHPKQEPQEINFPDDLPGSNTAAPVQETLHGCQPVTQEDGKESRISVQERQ
Test: cell-based or functional assay
Experimental endpoint: Δ w/sCD40L (fold): MDDC cytokine secretion EC50

INPUT: Param item = anti-CD40 11B6 human IgG4 antibody (antibody, V domains shown, also called mAb1 [11B6 VH/VkV2]; PAB3405) VH: EVQLVQSGAEVKKPGASVKISCKASGYSFTGYYMHWVKQAHGQGLEWIGRINPYNGATSYNQNFKDRATLTVDKSTSTAYMELSSLRSEDTAVYYCAREDYVYWGQGTTVTVSS VL: DVVMTQSPLSLPVTLGQPASISCRSSQSLVHSNGNTYLHWYQQRPGQSPRLLIYKVSNRFSGVPDRFSGSGSGTDFTLKISRVEAEDVGVYFCSQSTHVPWTFGGGTKLEIKR ; retrieve measured Δ w/sCD40L (fold): MDDC cytokine secretion EC50.
OUTPUT: > 1000 fold

INPUT: Param item = anti-CD40 12B4 human IgG4 antibody (antibody, V domains shown, also called mAb3 [12B4]) VH: EVQLQQSGPELVKPGASVKMSCKASGYTFTDYVLHWVKQKPGQGLEWIGYINPYNDGTKYNEKFKGKATLTSDKSSSTAYMELSSLTSEDSAVYYCARGYPAYSGYAMDYWGQGTSVTVSS VL: DIQMTQTTSSLSASLGDRVTISCRASQDISNYLNWYQQKPDGTVKLLIYYTSRLHSGVPSRFSGSGSGTDYSLTISNLEQEDIATYFCHHGNTLPWTFGGGTK ; retrieve measured Δ w/sCD40L (fold): MDDC cytokine secretion EC50.
OUTPUT: ~0 fold

INPUT: Param item = anti-CD40 24A3 human IgG4 antibody (antibody, V domains shown, also called mAb4 [24A3]) VH: DVQLQESGPDLVKPSQSLSLTCTVTGYSITSDYSWHWIRQFPGNKLEWMGYIYYSGSTNYNPSLKSRISITRDTSKNQFFLQLNSVTTEDSATYFCARFYYGYSFFDYWGQGTTLTVSS VL: QIVLTQSPAFMSASPGEKVTMTCSASSSVSYMHWYQQKSGTSPKRWIYDTSKLASGVPARFSGSGSGTSYSLTISSMEAEDAATYYCQQWSSNPLTFGAGTK ; retrieve measured Δ w/sCD40L (fold): MDDC cytokine secretion EC50.
OUTPUT: > 1000 fold

INPUT: Param item = anti-CD40 12E12 human IgG4 antibody (antibody, V domains shown, also called mAb6 [12E12]; anti-CD40 12E12 IgG4) VH: EVQLVESGGGLVQPGGSLKLSCATSGFTFSDYYMYWVRQAPGKGLEWVAYINSGGGSTYYPDTVKGRFTISRDNAKNTLYLQMNSLRAEDTAVYYCARRGLPFHAMDYWGQGTLVTVSS VL: DIQMTQSPSSLSASVGDRVTITCSASQGISNYLNWYQQKPGKAVKLLIYYTSILHSGVPSRFSGSGSGTDYTLTISSLQPEDFATYYCQQFNKLPPTFGGGTK ; retrieve measured Δ w/sCD40L (fold): MDDC cytokine secretion EC50.
OUTPUT: ~0 fold
